test system: Helicobacter pylori; assay: Inhibition of Helicobacter pylori FabZ at 50 uM
Active and inactive are the calls of the source. No cut-off for these calls is given here.
attributeMeasured: inhibition

Consider the reported inhibition for these compounds:
[
  {
    "testSmiles": "CC(C)(C)c1ccc(C(=O)N/N=C/c2cc(Br)c(O)c(Br)c2O)cc1",
    "inhibition": "74.4%"
  },
  {
    "testSmiles": "O=C(N/N=C/c1cc(Br)c(O)c(Br)c1O)c1ccc(Br)cc1",
    "inhibition": "94.2%"
  },
  {
    "testSmiles": "O=C(N/N=C/c1cc(Br)c(O)c(Br)c1O)c1ccc2ccccc2c1",
    "inhibition": "92.6%"
  },
  {
    "testSmiles": "CCN(CC)CCN1C(=O)/C(=C\\c2ccc(-c3ccc(Cl)c(C(=O)OC)c3)o2)S/C1=N/c1ccccc1",
    "inhibition": "inactive"
  }
]

# evaluate next
Problem: Quick one: inhibition for COCCN1C(=O)/C(=C\c2ccc(-c3ccc(Cl)c(C(=O)OC)c3)o2)S/C1=N/c1ccccc1Br ?
Result: inactive

====

test system: Helicobacter pylori; experiment: Inhibition of Helicobacter pylori FabZ at 50 uM
Calls of active or inactive are those of the source. The rule behind the calls is not given here.
attributeMeasured: inhibition

[
  {
    "testSmiles": "O=C(N/N=C/c1cc(Br)c(O)c(Br)c1O)c1cccs1",
    "attributeMeasured": "inhibition",
    "testValue": "72%"
  },
  {
    "testSmiles": "COC(=O)c1cc(-c2ccc(/C=C3/S/C(=N/c4ccccc4)N(CCCN(C)C)C3=O)o2)ccc1Cl",
    "attributeMeasured": "inhibition",
    "testValue": "inactive"
  },
  {
    "testSmiles": "COCCN1C(=O)/C(=C\\c2ccc(-c3ccc(Cl)c(C(=O)OC)c3)o2)S/C1=N/c1ccc(F)cc1",
    "attributeMeasured": "inhibition",
    "testValue": "inactive"
  },
  {
    "testSmiles": "O=C(N/N=C/c1ccc(O)cc1)c1cccnc1",
    "attributeMeasured": "inhibition",
    "testValue": "15.1%"
  }
]

====

system: Helicobacter pylori; assay: Inhibition of Helicobacter pylori FabZ at 50 uM
attributeMeasured: inhibition

[
  {
    "testSmiles": "O=C(N/N=C/c1cc(Br)c(O)c(Br)c1)c1cccnc1",
    "assayedSystem": "Helicobacter pylori",
    "inhibition": "62.1%"
  }
]

# evaluate next
Problem: Quick one: inhibition for COCCN1C(=O)/C(=C\c2ccc(-c3ccc(Cl)c(C(=O)OC)c3)o2)S/C1=N/c1cccc(Br)c1 ?
Result: 12%
